TARGET OR SYSTEM: T1, soluble human FcRn (shFcRn) (human, UniProt P55899 24-297; P61769 21-119)
T1 construct: Biotinylated for the ELISA, amine-coupled to a CM5 chip for SPR; also called biotinylated shFcRn
T1 sequence (P55899 24-297 limits assumed, chain 1 of 2): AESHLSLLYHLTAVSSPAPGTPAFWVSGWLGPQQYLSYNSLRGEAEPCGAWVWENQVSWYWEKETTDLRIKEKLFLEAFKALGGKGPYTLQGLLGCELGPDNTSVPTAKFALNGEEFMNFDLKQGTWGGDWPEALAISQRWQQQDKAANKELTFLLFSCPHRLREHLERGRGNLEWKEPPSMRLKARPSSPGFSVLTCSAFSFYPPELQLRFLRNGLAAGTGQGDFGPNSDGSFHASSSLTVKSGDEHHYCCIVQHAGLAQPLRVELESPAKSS
T1 sequence (P61769 21-119 limits assumed, chain 2 of 2): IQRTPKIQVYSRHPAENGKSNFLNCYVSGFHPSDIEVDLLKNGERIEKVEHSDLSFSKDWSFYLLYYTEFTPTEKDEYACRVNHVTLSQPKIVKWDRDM
PROTOCOL: SPR pH 6
Bridge positions count the residues as written; N and C are the ends. Square brackets hold non-standard residues; d marks the D form. Ends that are not written are not given here. Pen = CC(C)(S)[C@H](N)C(=O)O

>  <BINDER>
QRF[Pen]TGHF[dD]GLYPCNGP-NH2 (disulfide 4-14; N-terminus assumed; SMILES CC(C)C[C@@H]1NC(=O)CNC(=O)[C@@H](CC(=O)O)NC(=O)[C@H](Cc2ccccc2)NC(=O)[C@H](Cc2c[nH]cn2)NC(=O)CNC(=O)[C@H]([C@@H](C)O)NC(=O)[C@@H](NC(=O)[C@H](Cc2ccccc2)NC(=O)[C@H](CCCNC(=N)N)NC(=O)[C@@H](N)CCC(N)=O)C(C)(C)SSC[C@@H](C(=O)N[C@@H](CC(N)=O)C(=O)NCC(=O)N2CCC[C@H]2C(N)=O)NC(=O)[C@@H]2CCCN2C(=O)[C@H](Cc2ccc(O)cc2)NC1=O) [Peptide No. 47]

>  <Kd [µM]>
0.58

$$$$
>  <BINDER>
QRF[Pen]TGHF[dF]GPYPCNGP-NH2 (disulfide 4-14; N-terminus assumed; SMILES C[C@@H](O)[C@@H]1NC(=O)[C@@H](NC(=O)[C@H](Cc2ccccc2)NC(=O)[C@H](CCCNC(=N)N)NC(=O)[C@@H](N)CCC(N)=O)C(C)(C)SSC[C@@H](C(=O)N[C@@H](CC(N)=O)C(=O)NCC(=O)N2CCC[C@H]2C(N)=O)NC(=O)[C@@H]2CCCN2C(=O)[C@H](Cc2ccc(O)cc2)NC(=O)[C@@H]2CCCN2C(=O)CNC(=O)[C@@H](Cc2ccccc2)NC(=O)[C@H](Cc2ccccc2)NC(=O)[C@H](Cc2c[nH]cn2)NC(=O)CNC1=O) [Peptide No. 155]

>  <Kd [µM]>
18.3

$$$$
>  <BINDER>
QRF[Pen]TGHF[dF]PLYPCNGP-NH2 (disulfide 4-14; N-terminus assumed; SMILES CC(C)C[C@@H]1NC(=O)[C@@H]2CCCN2C(=O)[C@@H](Cc2ccccc2)NC(=O)[C@H](Cc2ccccc2)NC(=O)[C@H](Cc2c[nH]cn2)NC(=O)CNC(=O)[C@H]([C@@H](C)O)NC(=O)[C@@H](NC(=O)[C@H](Cc2ccccc2)NC(=O)[C@H](CCCNC(=N)N)NC(=O)[C@@H](N)CCC(N)=O)C(C)(C)SSC[C@@H](C(=O)N[C@@H](CC(N)=O)C(=O)NCC(=O)N2CCC[C@H]2C(N)=O)NC(=O)[C@@H]2CCCN2C(=O)[C@H](Cc2ccc(O)cc2)NC1=O) [Peptide No. 203]

>  <Kd [µM]>
3.8

$$$$
